TEST TARGET: recombinant eIF4E (Homo sapiens (Human), UniProt P06730)
Sequence (P06730 whole entry): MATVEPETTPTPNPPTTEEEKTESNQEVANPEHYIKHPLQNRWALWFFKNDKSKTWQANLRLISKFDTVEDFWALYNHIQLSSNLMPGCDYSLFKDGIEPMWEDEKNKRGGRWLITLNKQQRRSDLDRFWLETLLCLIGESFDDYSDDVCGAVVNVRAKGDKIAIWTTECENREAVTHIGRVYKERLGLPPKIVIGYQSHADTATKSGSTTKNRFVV
ASSAY TEXT: Fluorescence polarization competition assay for eIF4E binding potency
TEST CONTEXT: fluorescence polarization competition, 75 nM recombinant eIF4E, 20 nM EDA-m7GDP-ATTO-550; IC50 class; read-out: elF4E FP
pIC50: −log10 of the molar value.
Listing: pIC50 of selected compounds
ASSAY ENDPOINT: pIC50

                                smiles_data                               test_target  assay_endpoint        result
0  C#Cc1sc2c(-c3cc(Cl)ccc3OCCn3c(C)nc4cc(C(F)(F)F)cc(C#N)c4c3=O)ccnc2c1C(=O)O  recombinant eIF4E (Homo sapiens (Human), UniProt P06730)           pIC50  6.00 to 7.30
1  Cc1cc(-c2cc(Cl)ccc2OCCn2c(C)nc3cncc(C#N)c3c2=O)c2scc(C(=O)NS(C)(=O)=O)c2n1  recombinant eIF4E (Homo sapiens (Human), UniProt P06730)           pIC50        > 7.30
2  Cc1nc2cc(C(F)(F)F)c(Cl)c(C#N)c2c(=O)n1CCOc1cc(F)c(Cl)cc1-c1ccnc2c(C(=O)O)csc12  recombinant eIF4E (Homo sapiens (Human), UniProt P06730)           pIC50        > 7.30
3  Cc1nc2c(Cl)cc(Cl)c(C#N)c2c(=O)n1CCOc1ccc(Cl)cc1-c1ccnc2c(C(=O)O)csc12  recombinant eIF4E (Homo sapiens (Human), UniProt P06730)           pIC50        > 7.30
